# pIC50 annotations
# target-desc: cyclin E/CDK2 enzyme (Homo sapiens, UniProt P24941)
# Construct: made in house; host or cells: Sf9 insect cells, recombinant baculovirus
# protocol-details: CDK2 ELISA kinase assay (phospho-Rb ser 795 detection)
# Format: biochemical
# measurement-setup: In Vitro Enzyme Assays, read-out: CDK2 IC50
pIC50: −log10 of the molar value.

[
  {
    "compound": "COc1ccc(/C=C2/C(=O)NC(=O)c3ccccc32)cc1OC",
    "pIC50": "< 4.49"
  }
]

Field request: pIC50 | item: `Nc1cc(CN/C=C2\C(=O)NC(=O)c3ccc(Br)cc32)cc(O)c1O`
5.15

Query: pIC50; subject: COc1ccc(C(C)N/C=C2\C(=O)NC(=O)c3ccc(Br)cc32)cc1O (centres unmarked)
< 4.30

Value lookup for pIC50; key = `CN1CCCN(c2ccc(N/C=C3\C(=O)NC(=O)c4ccc(Br)cc43)cc2)CC1`
< 4.30

What measured pIC50 goes with `CC(=O)Nc1cc(CN/C=C2\C(=O)NC(=O)c3ccc(Br)cc32)cc(O)c1O` ?
< 4.30

----------
# target-desc: cyclin E/CDK2 enzyme (Homo sapiens)
# Construct: made in house; host or cells: Sf9 insect cells, recombinant baculovirus
# protocol-details: CDK2 ELISA kinase assay (phospho-Rb ser 795 detection)
# Format: biochemical
# measurement-setup: In Vitro Enzyme Assays, read-out: CDK2 IC50
Below, each entry is listed with its recorded IC50.

I am curious: what IC50 value has been reported for O=C1NC(=O)c2ccc(I)cc2/C1=C/Nc1ccc(N2CCNCC2)nc1 [Example 410] ?
17.6 µM

Request the reported IC50 associated with COc1ccc(C(=O)NN/C=C2\C(=O)NC(=O)c3ccc(Br)cc32)cc1O [Example 202]
> 50 µM

Quick one: IC50 of COc1cc(CN/C=C2\C(=O)NC(=O)c3ccc(-c4ccccc4)cc32)cc(O)c1OC [Example 86] ?
> 50 µM

// IC50 lookup, key: CCCOc1cc(O)cc(CN/C=C2\C(=O)NC(=O)c3ccc(Br)cc32)c1 [Example 195]
> 50 µM

Form field: reported IC50 of CCCOc1ccc(CN/C=C2\C(=O)NC(=O)c3ccc(Br)cc32)cc1C(N)=O [Example 353]
31.7 µM

Which IC50 value belongs to C=C(CN(C)C)C(=O)Nc1ccc(CN/C=C2\C(=O)NC(=O)c3ccc(I)cc32)cc1O [Example 338] ?
2.8 µM

Field request: IC50 | item: O=C1NC(=O)c2ccc(Br)cc2/C1=C/Nc1ccc(O)c(C(=O)O)c1 [Example 58]
19.4 µM

----------
Listed molecules paired with reported IC50
# target-desc: cyclin B/CDK1 enzyme (Homo sapiens, UniProt P06493)
# Construct: purchased New England BioLabs; host or cells: Sf9 insect cells, recombinant baculovirus
# Sequence (P06493 whole entry): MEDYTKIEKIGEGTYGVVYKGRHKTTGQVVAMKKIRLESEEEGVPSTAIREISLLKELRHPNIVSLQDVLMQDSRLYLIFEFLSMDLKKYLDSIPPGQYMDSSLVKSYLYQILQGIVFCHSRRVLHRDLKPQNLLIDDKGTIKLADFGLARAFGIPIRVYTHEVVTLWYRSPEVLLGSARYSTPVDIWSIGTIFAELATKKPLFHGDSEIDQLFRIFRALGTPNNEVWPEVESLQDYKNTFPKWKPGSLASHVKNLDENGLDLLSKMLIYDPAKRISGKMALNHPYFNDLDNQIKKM
# Sequence (P14635 whole entry partner): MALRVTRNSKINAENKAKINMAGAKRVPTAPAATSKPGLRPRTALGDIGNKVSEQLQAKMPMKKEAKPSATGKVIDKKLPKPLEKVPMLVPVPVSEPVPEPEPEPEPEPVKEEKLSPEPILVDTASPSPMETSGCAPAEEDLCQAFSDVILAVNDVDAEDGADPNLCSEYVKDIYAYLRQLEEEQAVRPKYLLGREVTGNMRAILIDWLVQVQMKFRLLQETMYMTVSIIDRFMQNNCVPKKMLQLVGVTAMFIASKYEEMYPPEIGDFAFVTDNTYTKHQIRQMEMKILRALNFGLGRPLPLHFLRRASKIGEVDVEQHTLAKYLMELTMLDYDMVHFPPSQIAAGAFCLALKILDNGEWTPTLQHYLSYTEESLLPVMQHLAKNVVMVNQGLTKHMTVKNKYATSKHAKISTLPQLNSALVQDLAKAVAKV
# protocol-details: CDK1 ELISA kinase assay (phospho-Rb ser 795 detection)
# Type: biochemical
# measurement-setup: In Vitro Enzyme Assays, read-out: CDK1 IC50

[
  {
    "molecule": "COc1cnc(CN/C=C2\\C(=O)NC(=O)c3ccc(Br)cc32)cc1O",
    "observed-property": "IC50",
    "recorded-result": "21.3 µM"
  },
  {
    "molecule": "CCCOc1ccc(CN/C=C2\\C(=O)NC(=O)c3ccc(Br)cc32)cc1C(=O)O",
    "observed-property": "IC50",
    "recorded-result": "22.6 µM"
  },
  {
    "molecule": "O=C1NC(=O)c2ccc(Br)cc2C1=CNc1ccc(-c2cccnc2)cc1",
    "observed-property": "IC50",
    "recorded-result": "> 50 µM"
  },
  {
    "molecule": "Cl.O=C1NC(=O)c2ccc(Br)cc2C1=NNc1ccc(CN2CCCCC2)cc1 [Example 144, Hydrochloride]",
    "observed-property": "IC50",
    "recorded-result": "> 50 µM"
  }
]

# query: IC50 of entry C=CCN1CCCC1c1ccc(N/C=C2\C(=O)NC(=O)c3ccc(-c4ccsc4)cc32)cc1 (centres unmarked)
> 50 µM

Quick one: IC50 of `C[C@@H]1CN(c2ccc(N/C=C3\C(=O)NC(=O)c4ccc(-c5ccoc5)cc43)cc2)C[C@H](C)N1C(=O)CN(C)C` ?
> 50 µM

GET /values?readout=IC50&item= `COc1cc2c(cc1-c1ccc(F)cc1)/C(=C/Nc1ccc(CN3CCCCC3)cc1)C(=O)NC2=O`
> 50 µM

Fill in the blank: the reported IC50 of `CN1CCN(c2ccc(N/C=C3\C(=O)NC(=O)c4ccc(Br)cc43)cn2)CC1` is ____.
> 50 µM

This collection of values is drawn from patent US7713994B2.
